measurement-target: T1, HER3 extracellular domain recombinant protein (human, UniProt P21860 20-643)
T1 construct: extracellular domain; also called HER3 extracellular domain protein; HER3 protein
T1 sequence (P21860 20-643): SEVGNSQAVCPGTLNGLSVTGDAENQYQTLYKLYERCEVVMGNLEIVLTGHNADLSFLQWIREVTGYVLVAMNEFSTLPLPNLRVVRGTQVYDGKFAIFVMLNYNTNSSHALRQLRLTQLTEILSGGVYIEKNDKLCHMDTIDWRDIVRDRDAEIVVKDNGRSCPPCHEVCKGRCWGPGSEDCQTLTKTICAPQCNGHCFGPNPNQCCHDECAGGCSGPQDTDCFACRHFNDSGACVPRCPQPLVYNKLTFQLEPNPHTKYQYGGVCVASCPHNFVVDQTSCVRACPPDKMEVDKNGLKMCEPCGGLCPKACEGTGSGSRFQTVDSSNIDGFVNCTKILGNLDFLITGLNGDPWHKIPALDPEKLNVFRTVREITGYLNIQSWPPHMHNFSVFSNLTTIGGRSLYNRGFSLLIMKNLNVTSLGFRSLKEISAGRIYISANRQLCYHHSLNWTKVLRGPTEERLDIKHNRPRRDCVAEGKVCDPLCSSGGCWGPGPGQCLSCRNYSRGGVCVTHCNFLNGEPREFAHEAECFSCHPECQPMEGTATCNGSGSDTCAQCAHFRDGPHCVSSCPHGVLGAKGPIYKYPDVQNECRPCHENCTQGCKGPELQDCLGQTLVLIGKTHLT
experimental-details: SPR, ProteOn XPR36; antibody captured by goat anti-human antibody, HER3 extracellular domain 1.25-20 nM as analyte, Langmuir model
pKd: −log10 of the molar value.
reported-metric: pKd

humanized antibody hu1044-6 (VL63/69, VH68 back mutation) (antibody, human IgG1, V domains shown) VH: QVQLVQSGAEVKKPGSSVKVSCKASGGTFSNYWIDWVRQAPGQGLEWMGEILPGSGGTDYNEKFKGRATITADTSTSTAYMELSSLRSEDTAVYYCARDDYDVFAYWGQGTLVTVSS VL: DIVMTQSPGTLSLSPGERATLSCRSSKSLLHSNGITYLYWYQQKPGQAPRLLIYQMSNLASGVPDRFSSSGSGTDFTLTISRLEPEDFAVYYCAQNLELPWTFGQGTKVEIKR :: 9.38
humanized antibody hu1044 (VL69, VH38 back mutation) (antibody, V domains shown, also called final humanized antibody hu1044) VH: QVQLVQSGAEVKKPGSSVKVSCKASGGTFSNYWIDWVKQAPGQGLEWMGEILPGSGGTDYNEKFKGRVTITADTSTSTAYMELSSLRSEDTAVYYCARDDYDVFAYWGQGTLVTVSS VL: DIVMTQSPGTLSLSPGERATLSCRSSKSLLHSNGITYLYWYQQKPGQAPRLLIYQMSNLASGIPDRFSSSGSGTDFTLTISRLEPEDFAVYYCAQNLELPWTFGQGTKVEIKR :: 9.35
humanized antibody hu1044-3 (VL69, VH48 back mutation) (antibody, human IgG1, V domains shown) VH: QVQLVQSGAEVKKPGSSVKVSCKASGGTFSNYWIDWVRQAPGQGLEWIGEILPGSGGTDYNEKFKGRVTITADTSTSTAYMELSSLRSEDTAVYYCARDDYDVFAYWGQGTLVTVSS VL: DIVMTQSPGTLSLSPGERATLSCRSSKSLLHSNGITYLYWYQQKPGQAPRLLIYQMSNLASGIPDRFSSSGSGTDFTLTISRLEPEDFAVYYCAQNLELPWTFGQGTKVEIKR :: 9.26
humanized antibody hu1044-7 (VL63/69, VH67/68 back mutation) (antibody, human IgG1, V domains shown) VH: QVQLVQSGAEVKKPGSSVKVSCKASGGTFSNYWIDWVRQAPGQGLEWMGEILPGSGGTDYNEKFKGKATITADTSTSTAYMELSSLRSEDTAVYYCARDDYDVFAYWGQGTLVTVSS VL: DIVMTQSPGTLSLSPGERATLSCRSSKSLLHSNGITYLYWYQQKPGQAPRLLIYQMSNLASGVPDRFSSSGSGTDFTLTISRLEPEDFAVYYCAQNLELPWTFGQGTKVEIKR :: 9.43
humanized antibody hu1044-1 (VL69 back mutation) (antibody, human IgG1, V domains shown, h1044-0 with Gly to Ser at VL69) VH: QVQLVQSGAEVKKPGSSVKVSCKASGGTFSNYWIDWVRQAPGQGLEWMGEILPGSGGTDYNEKFKGRVTITADTSTSTAYMELSSLRSEDTAVYYCARDDYDVFAYWGQGTLVTVSS VL: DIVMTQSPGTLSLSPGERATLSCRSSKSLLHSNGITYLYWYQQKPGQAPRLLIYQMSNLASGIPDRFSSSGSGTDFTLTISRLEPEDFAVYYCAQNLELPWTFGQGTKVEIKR :: 9.23
1044 human-mouse chimeric antibody (antibody, V domains shown) VH: EVQLQQSGTELMKPGASVKISCKATGGTFSNYWIDWVKQRPGHGLEWIGEILPGSGGTDYNEKFKGKATFTADTSSNTAYMQLSSLTSEDSAVYYCARDDYDVFAYWGQGTLVTVSA VL: DIVMTQAAFSNPVTLGTSASISCRSSKSLLHSNGITYLYWYLQKPGQSPQLLIYQMSNLASGVPDRFSSSGSGTDFTLRISRVEAEDVGVYYCAQNLELPWTFGGGTKLEIKR :: 9.56
humanized antibody hu1044-5 (VL63/69, VH38 back mutation) (antibody, human IgG1, V domains shown) VH: QVQLVQSGAEVKKPGSSVKVSCKASGGTFSNYWIDWVKQAPGQGLEWMGEILPGSGGTDYNEKFKGRVTITADTSTSTAYMELSSLRSEDTAVYYCARDDYDVFAYWGQGTLVTVSS VL: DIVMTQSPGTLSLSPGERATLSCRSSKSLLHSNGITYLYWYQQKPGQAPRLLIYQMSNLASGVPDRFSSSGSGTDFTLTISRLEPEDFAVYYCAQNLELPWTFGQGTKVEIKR :: 9.38
humanized antibody hu1044-4 (VL69, VH68 back mutation) (antibody, human IgG1, V domains shown) VH: QVQLVQSGAEVKKPGSSVKVSCKASGGTFSNYWIDWVRQAPGQGLEWMGEILPGSGGTDYNEKFKGRATITADTSTSTAYMELSSLRSEDTAVYYCARDDYDVFAYWGQGTLVTVSS VL: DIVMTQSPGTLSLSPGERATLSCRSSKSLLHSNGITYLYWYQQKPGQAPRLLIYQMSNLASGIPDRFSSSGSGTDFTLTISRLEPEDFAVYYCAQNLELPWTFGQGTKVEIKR :: 9.34
